Biological target: OachGOBP2 (Orthaga achatina, UniProt H6UEU3)
Sequence (H6UEU3 entry or part of it): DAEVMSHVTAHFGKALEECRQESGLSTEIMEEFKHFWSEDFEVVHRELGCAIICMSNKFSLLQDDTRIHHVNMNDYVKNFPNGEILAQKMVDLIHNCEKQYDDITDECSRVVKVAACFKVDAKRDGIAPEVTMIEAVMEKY
Experiment: Fluorescence competitive binding assay (1-NPN displacement), OachGOBP2
Settings: competitive ligand replacing 50% 1-NPN; 2 µM protein and 2 µM 1-NPN in 50 mM Tris HCl; read-out: GOBP2 IC50
Examples of compounds with documented IC50 follow.
measurement_label: IC50

CCCC/C=C\CCCCCCCCCCOC(C)=O	3.3 µM
C=C1C2CCC(C2)C1(C)C (stereo not shown)	> 32 µM
CCCCCCOC(C)=O [Hexyl acetate]	> 32 µM
CCCCCCO	> 32 µM
C=C(C)[C@H]1CC=C(C)CC1	> 32 µM
C=CC(=C)CC/C=C(\C)CCC=C(C)C	> 32 µM
C=C/C(C)=C/C/C=C(\C)CCC=C(C)C	15.9 µM

----------
Values of Ki reported for OachGOBP2 (Orthaga achatina) appear below.
measurement_label: Ki

CC/C=C\CCOC(C)=O [Z3-Hexenyl acetate]	14.3 µM
C=CC(=C)CC/C=C(\C)CCC=C(C)C [β-Farnesene]	> 30 µM
CCCCCCOC(C)=O [Hexyl acetate]	> 30 µM
C=C1C2CCC(C2)C1(C)C (stereo not shown) [Camphene]	> 30 µM
C=C/C(C)=C/C/C=C(\C)CCC=C(C)C [α-Farnesene]	13.4 µM
CCC/C=C/C=O [E2-Hexenal]	> 30 µM
CCCC/C=C\CCCCCCCCCCO [Z11-16: OH]	3.3 µM
C=C(C)[C@H]1CC=C(C)CC1 [Limonene]	> 30 µM
C=CC(C)=CCC=C(C)C [Ocimene]	> 30 µM
CC/C=C\CC=O [Z3-Hexenal]	> 30 µM
CC/C=C\CCO [Z3-Hexen-1-ol]	18.2 µM
CCCCCCO [1-Hexanol]	> 30 µM
CC12CCC(CC1=O)C2(C)C (stereo not shown) [Camphor]	17.5 µM
